Tested on: PC-3 cells
runDescription: MTT cell viability assay, PC-3 cells in 10% FBS medium
Format: cell-based, human
assayConditions: Homo sapiens, PC-3, 48 h, RPMI 1640 with 10% FBS, means ± S.D. (n = 6)
observable: IC50 (µM)

Worked cases, IC50 given:
>>> testresult("COc1cc2nc(N3CCN(S(=O)(=O)c4ccc(-c5ccc(C)cc5)cc4)CC3)nc(N)c2cc1OC")
3.4
>>> testresult("COc1cc2nc(N3CCN(S(=O)(=O)c4ccc(C(F)(F)F)cc4)CC3)nc(N)c2cc1OC")
27
>>> testresult("COc1cc2nc(N3CCN(S(=O)(=O)c4ccc(OC(F)(F)F)cc4)CC3)nc(N)c2cc1OC")
25
>>> testresult("CCCOc1cc2nc(N3CCN(S(=O)(=O)c4ccc(-c5ccccc5)cc4)CC3)nc(N)c2cc1OCCC")
2.5
>>> testresult("COc1cc2nc(N3CCN(S(=O)(=O)c4ccccc4[N+](=O)[O-])CC3)nc(N)c2cc1OC")
35

A = COc1cc2nc(N3CCN(C(=O)c4ccc([N+](=O)[O-])cc4)CC3)nc(N)c2cc1OC
B = COc1cc2nc(N3CCN(S(=O)(=O)c4cc(C(=O)O)c(Cl)cc4Cl)CC3)nc(N)c2cc1OC
C = COc1cc2nc(N3CCN(S(=O)(=O)c4ccc(Cl)cc4)CC3)nc(N)c2cc1OC
D = COc1cc2nc(N3CCN(S(=O)(=O)c4ccc(-c5ccc(S(C)(=O)=O)cc5)cc4)CC3)nc(N)c2cc1OC
E = C=CCOc1cc2nc(N3CCN(S(=O)(=O)c4ccc(-c5ccccc5)cc4)CC3)nc(N)c2cc1OCC=C
(Q) Kindly order the items shown according to IC50, from the highest value down. Output spec: labels arranged per the requested ranking.
(A) A, B, C, D, E

A = COc1cc2nc(N3CCN(C(=O)c4cccc5ccccc45)CC3)nc(N)c2cc1OC
B = COc1cc2nc(N3CCN(S(=O)(=O)c4ccc(S(C)(=O)=O)cc4)CC3)nc(N)c2cc1OC
(Q) Higher IC50 between A and B ? Selection: enter the item's label.
(A) A

1 = COc1cc2nc(N3CCN(C(=O)c4cccc(C#N)c4)CC3)nc(N)c2cc1OC
2 = COc1cc2nc(N3CCN(S(=O)(=O)c4ccc(Br)cc4)CC3)nc(N)c2cc1OC
(Q) Between 1 and 2 , which one shows the smaller IC50 number? Selection: enter the item's label.
(A) 2
(2: 20 µM, 1: 82 µM)
